PROTOCOL_NOTES: Plasma concentration in C57BL/6J mouse at 1 mg/kg, ip after 0.5 hrs by LC-MS/MS analysis
Assay type: ADME, organism-based
REPORTED_PROPERTY: concentration at 0.5 h (µg/mL)
One number for each entry, in µg/mL.

Input "Cc1cccc(Cl)c1-n1cnc2nc(SCc3ccccc3)sc2c1=O" , output reported concentration at 0.5 h.
0.0343

====

PROTOCOL_NOTES: Oral bioavailability in rat at 60 mg/kg by LC-MS/MS analysis
Type: ADME, organism-based
ASSAY_SETUP: in vivo
REPORTED_PROPERTY: bioavailability (%)
Give bare numbers, in %.

Give the value of bioavailability reported for the following: "Cc1cccc(Cl)c1-n1cnc2nc(SCc3ccccc3)sc2c1=O"
8

====

PROTOCOL_NOTES: Plasma concentration in C57BL/6J mouse at 1 mg/kg, ip after 8 hrs by LC-MS/MS analysis
Type: ADME, organism-based
REPORTED_PROPERTY: concentration at 8 h
Value and unit, in that order.

Supply concentration at 8 h value. Item: "Cc1cccc(Cl)c1-n1cnc2nc(SCc3ccccc3)sc2c1=O"
0.9 ng/mL

====

PROTOCOL_NOTES: Clearance in rat at 3 mg/kg, iv by LC-MS/MS analysis
Format: ADME, organism-based
ASSAY_SETUP: in vivo
REPORTED_PROPERTY: clearance (mL/h/kg)
One number for each entry, in mL/h/kg.

Identify measured clearance corresponding to "Cc1cccc(Cl)c1-n1cnc2nc(SCc3ccccc3)sc2c1=O"
5

====

PROTOCOL_NOTES: Cmax in rat at 60 mg/kg, po by LC-MS/MS analysis
Format: ADME, organism-based
Set-up: dose 60 mg/kg, route oral
ASSAY_SETUP: in vivo
REPORTED_PROPERTY: Cmax (ng/mL)
Numbers only, in ng/mL.

Supply recorded Cmax for "Cc1cccc(Cl)c1-n1cnc2nc(SCc3ccccc3)sc2c1=O" here.
200

====

PROTOCOL_NOTES: AUClast in rat at 3 mg/kg, iv by LC-MS/MS analysis
Format: ADME, organism-based
Parameters: dose 3 mg/kg, time 0 - last, route intravenous
ASSAY_SETUP: in vivo
REPORTED_PROPERTY: AUC(0-t)

Write down AUC(0-t) measured for item "Cc1cccc(Cl)c1-n1cnc2nc(SCc3ccccc3)sc2c1=O"
600 ng·h/mL

====

PROTOCOL_NOTES: Ratio of drug level in C57BL/6J mouse brain to plasma at 1 mg/kg, ip after 0.5 hrs by LC-MS/MS analysis
Type: ADME, organism-based
ASSAY_SETUP: read-out: BPR
REPORTED_PROPERTY: Kp at 0.5 h
Give bare numbers.

Please supply the value of reported Kp at 0.5 h for the item "Cc1cccc(Cl)c1-n1cnc2nc(SCc3ccccc3)sc2c1=O"
2.5

====

PROTOCOL_NOTES: Apparent volume of distribution during terminal phase in rat at 60 mg/kg, po by LC-MS/MS analysis
Assay type: ADME, organism-based
ASSAY_SETUP: in vivo
REPORTED_PROPERTY: Vd/F (L/kg)
Answers are plain numbers, in L/kg.

Return reported Vd/F. Input molecule: "Cc1cccc(Cl)c1-n1cnc2nc(SCc3ccccc3)sc2c1=O"
0.6

====

PROTOCOL_NOTES: Drug uptake in C57BL/6J mouse brain at 1 mg/kg, ip after 0.5 hrs by LC-MS/MS analysis
Assay type: ADME, organism-based
ASSAY_SETUP: read-out: Drug uptake
REPORTED_PROPERTY: concentration at 0.5 h (ng/g)
Answers are plain numbers, in ng/g.

Identify measured concentration at 0.5 h associated with "Cc1cccc(Cl)c1-n1cnc2nc(SCc3ccccc3)sc2c1=O"
84.7

====

MEASURED_ON: Neuronal acetylcholine receptor subunit alpha-7 (Homo sapiens)
PROTOCOL_NOTES: Positive allosteric modulation of human alpha7 nAChR expressed in Xenopus laevis oocytes assessed as increase in acetylcholine-induced channel current at 10 uM at -90 mV holding potential preincubated for 2 mins followed by co-application with acetylcholine for 10 secs by two-electrode voltage clamp method relative to control
Format: cell-based
REPORTED_PROPERTY: %max (%)
Give bare numbers, in %.

Here is how some compounds turned out for %max.
COc1ccc(Nc2nc3ncn(-c4c(C)cccc4Cl)c(=O)c3s2)cc1    200
O=c1c2sc(SCc3ccccc3)nc2ncn1-c1ccccc1Cl    217
Cc1ccc(N(C)c2nc3ncn(-c4c(C)cccc4Cl)c(=O)c3s2)cc1    107

Below are 3 compounds. Give each one its %max.
1. Cc1cccc(Cl)c1-n1cnc2nc(SCc3ccccc3)sc2c1=O
2. Cc1cc(Nc2nc3ncn(-c4c(C)cccc4Cl)c(=O)c3s2)cc(C)c1C
3. Cc1cccc(Cl)c1-n1cnc2nc(SCc3ccc(F)cc3)sc2c1=O

[1630, 600, 788]

====

PROTOCOL_NOTES: AUCinfinity in rat at 3 mg/kg, iv by LC-MS/MS analysis
Format: ADME, organism-based
Parameters: dose 3 mg/kg, route intravenous, time infinity
ASSAY_SETUP: in vivo
REPORTED_PROPERTY: AUC(0-inf)

Return value of AUC(0-inf) for input "Cc1cccc(Cl)c1-n1cnc2nc(SCc3ccccc3)sc2c1=O" , no commentary.
680 ng·h/mL

====

PROTOCOL_NOTES: Ratio of drug level in C57BL/6J mouse brain to plasma at 1 mg/kg, ip after 2 hrs by LC-MS/MS analysis
Type: ADME, organism-based
ASSAY_SETUP: read-out: BPR
REPORTED_PROPERTY: Kp at 2 h

Supply recorded Kp at 2 h for "Cc1cccc(Cl)c1-n1cnc2nc(SCc3ccccc3)sc2c1=O" here.
2.7

====

MEASURED_ON: Neuronal acetylcholine receptor subunit alpha-7 (Homo sapiens, UniProt P36544)
Sequence (P36544 whole entry): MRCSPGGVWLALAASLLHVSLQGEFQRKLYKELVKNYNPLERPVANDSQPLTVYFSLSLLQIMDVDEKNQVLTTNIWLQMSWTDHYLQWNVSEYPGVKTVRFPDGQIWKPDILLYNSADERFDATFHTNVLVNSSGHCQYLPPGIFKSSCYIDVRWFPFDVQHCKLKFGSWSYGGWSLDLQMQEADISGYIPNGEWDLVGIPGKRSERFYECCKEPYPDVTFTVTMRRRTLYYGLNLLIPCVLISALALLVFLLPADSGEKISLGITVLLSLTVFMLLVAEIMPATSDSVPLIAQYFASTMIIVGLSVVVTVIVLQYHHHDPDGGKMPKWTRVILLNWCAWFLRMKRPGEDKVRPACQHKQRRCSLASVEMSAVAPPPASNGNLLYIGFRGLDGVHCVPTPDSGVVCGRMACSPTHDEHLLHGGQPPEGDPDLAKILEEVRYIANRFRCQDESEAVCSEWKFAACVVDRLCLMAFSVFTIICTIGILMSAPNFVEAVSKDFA
PROTOCOL_NOTES: Positive allosteric modulation of human alpha7 nAChR expressed in Xenopus laevis oocytes assessed as increase in acetylcholine-induced channel current at 10 uM at -90 mV holding potential preincubated for 2 mins followed by co-application with acetylcholine for 10 secs by two-electrode voltage clamp method relative to control
Type: cell-based
Calls of active or inactive are those of the source. The rule behind the calls is not given here.
REPORTED_PROPERTY: %max

Cc1cccc(Cl)c1-n1cnc2nc(Nc3ccc(Cl)nn3)sc2c1=O    inactive
Cc1cccc(Cl)c1-n1cnc2nc(Nc3ccc(F)c(F)c3)sc2c1=O    300%
Cc1cccc(Cl)c1-n1cnc2nc(Nc3ccc(OC(F)(F)F)cc3)sc2c1=O    200%
Cc1cccc(Cl)c1-n1cnc2nc(Nc3ccccc3F)sc2c1=O    200%

Below are some molecules; for each one, tell me its %max.
1. Cc1nc(Cl)cc(Nc2nc3ncn(-c4c(C)cccc4Cl)c(=O)c3s2)n1
2. Cc1cccc(Cl)c1-n1cnc2nc(NCc3ccccc3)sc2c1=O
3. Cc1cccc(Cl)c1-n1cnc2nc(Nc3ccccc3)sc2c1=O

1: 320%; 2: inactive; 3: 300%
